Measured % Cell Viability, listed per entry.
System: human Hep G2 cells (ATCC HB-8065)
EXPERIMENT_SUMMARY: Cytotoxicity in Hep G2 cells (CellTiter-Glo)
Type: cell-based
ASSAY_CONDITIONS: Hep G2 cells, 100 μM test article, 24-hour exposure
Where a name gives a salt, the structure may show the parent alone.
READOUT_TYPE: % Cell Viability (%)

1) Cc1ccc(N2CCN(C)CC2)cc1C(=O)N[C@H](C)c1cccc(C(=O)NC[C@@H](O)CO)c1 [Example 308, hydrochloride salt] = 126.8
2) Cc1ccc(N2CCN(C)CC2)cc1C(=O)N[C@H](C)c1cccc(-c2csc(C(=O)N(C)C)c2)c1 = 88.1
3) Cc1ccc(N2CCN(C)CC2)cc1C(=O)N[C@H](C)c1cccc(-c2cccc(C(=O)NCCO)c2)c1 = 72.1
4) Cc1ccc(N2CCN(C)CC2)cc1C(=O)N[C@H](C)c1cccc(-c2ccc(CO)cc2)c1 = 75.1

###

SYSTEM_NAME: SARS-CoV-2 PLpro (Severe acute respiratory syndrome coronavirus 2, UniProt P0DTD1)
Construct: containing 60 nM papain-like protease
EXPERIMENT_SUMMARY: biochemical
ASSAY_CONDITIONS: 60 nM papain-like protease, 50 μM Z-RLRGG-AMC, pH 7.5, 37° C.; read-out: SARS-CoV-2 PLpro IC50
pIC50: −log10 of the molar value.
Measured pIC50, listed per entry.
READOUT_TYPE: pIC50

1. Cc1ccc(N2CCN(C)CC2)cc1C(=O)N[C@H](C)c1cccc(CCC(=O)NCCO)c1 [Example 96] = > 5.00
2. Cc1ccc(N2CCN(C)CC2)cc1C(=O)N[C@H](C)c1cccc(-c2cccc(C(=O)NC[C@H](O)CO)c2)c1 [Example 89] = > 5.30
3. Cc1ccc(N2CCN(C3COC3)CC2)cc1C(=O)N[C@H](C)c1cccc2ccccc12 [Example 117] = > 5.30
4. COc1cc(-c2cnn(C)c2)cc([C@@H](C)NC(=O)c2cc(N3CCCN(C)CC3)ccc2C)c1 [Example 247] = > 5.70
5. Cc1ccc(N2CCCNCC2)cc1C(=O)N[C@H](C)c1cccc2ccccc12 [Example 128] = > 5.70
6. COc1ccc([C@@H](C)NC(=O)c2cc(N3C[C@H]4C[C@@H]3CN4C)ccc2C)cc1-c1csc(C(=O)NC2CC2)c1 [Example 287] = > 5.70
7. COc1ccc([C@@H](C)NC(=O)c2cc(N3C[C@H]4C[C@@H]3CN4C)ccc2C)cc1-c1cnn(C)c1 [Example 227] = > 5.70
8. COc1cc([C@@H](C)NC(=O)c2cc(N3C[C@H]4C[C@@H]3CN4C)ccc2C)ccc1OCC1CC1 [Example 297] = > 5.70
9. Cc1ccc(N2CCN(C)CC2)cc1C(=O)N[C@H](C)c1ccc(-c2ccc(CO)cc2)cc1 [Example 54] = > 5.00
10. Cc1ccc(N2CCN(C)CC2)cc1C(=O)N[C@H](C)c1cc(F)cc(-c2cnn(C)c2)c1 [Example 229] = > 5.70
11. Cc1ccc(-c2ccccc2)cc1C(=O)N[C@H](C)c1cccc2ccccc12 [Example 5] = < 4.00
12. Cc1ccc(N2CCN(C)CC2)cc1C(=O)N[C@H](C)c1cnn(C)c1 [Example 127] = > 4.00
13. Cc1ccc(N2CCN(C)CC2)cc1C(=O)N[C@H](C)c1ccc(O)c(-c2cnn(C)c2)c1 [Example 276] = > 5.70
14. COc1ccc([C@@H](C)NC(=O)c2cc(N3CCN(C)CC3)ccc2C)cc1-c1ccsc1 [Example 206] = > 5.70
15. Cc1ccc(N2CCN(C)CC2)cc1C(=O)N[C@H](C)c1cccc(-c2cccc(C(=O)NCCN(C)C)c2)c1 [Example 94] = > 5.70
16. CC(=O)N1CCC(c2cccc(C(=O)N[C@H](C)c3cccc4ccccc34)c2)CC1 [Example 7] = < 4.00

Values from patent US20240383852A1
